Tested on: SEM cells
test_protocol: cell viability relative to DMSO control; higher = less cytotoxic
experimental_context: HPLM + 10% dialyzed FBS; 48 h; 5.12 µM
Measured cell viability values are reported for all entries that follow.

These solved cases illustrate the format of a correct answer.
[[record]]
smiles_string = "Cc1ncc([N+](=O)[O-])n1CCO"
observed_result = "118%"

[[record]]
smiles_string = "CC(C)(C)NC(=O)[C@@H]1CN(Cc2cccnc2)CCN1C[C@@H](O)C[C@@H](Cc1ccccc1)C(=O)N[C@H]1c2ccccc2C[C@H]1O.O=S(=O)(O)O"
observed_result = "93.3%"

[[record]]
smiles_string = "C#C[C@]1(O)CC[C@H]2[C@@H]3CCc4cc(OC)ccc4[C@H]3CC[C@@]21C"
observed_result = "40.3%"


In the following, a different molecule is considered.
// lookup cell viability for `CC(C)c1ccccc1Cc1cc(C(=O)Nc2ccc([S+](=O)([O-])c3ccccc3C(C)(C)C)cc2)c(O)c(O)c1O` 68.6%

====

Test system: SEM cells
test_protocol: cell viability relative to DMSO control; higher = less cytotoxic
experimental_context: RPMI 5 mM glucose + 10% FBS; 48 h; 5.12 µM
metric: cell viability (%)
Supply the numeric figure in %, leaving out any unit text.

These solved cases illustrate the format of a correct answer.
[[record]]
compound = "NC(=O)c1cccc(N)c1"
subject_of_test = "SEM cells"
unit_info = "%"
observed_result = 80.6

[[record]]
compound = "C[N+](C)([O-])CCNc1ccc(NCC[N+](C)(C)[O-])c2c1C(=O)c1c(O)ccc(O)c1C2=O"
subject_of_test = "SEM cells"
unit_info = "%"
observed_result = 7.28


What measured cell viability is associated with `Cc1cc(O)c2c(c1)C(=O)c1cc(O)cc(O)c1C2=O` on SEM cells? 112

What measured cell viability is associated with `O=c1[nH]cnc2c1ncn2[C@H]1CC[C@@H](CO)O1` on SEM cells? 83.4

What measured cell viability is associated with CO[C@@H]1C(N(C)C(=O)c2ccccc2)C[C@H]2O[C@]1(C)n1c3ccccc3c3c4c(c5c6ccccc6n2c5c31)C(=O)NC4=O (some centres undefined) on SEM cells? 19.4

What measured cell viability is associated with `C[C@@H](N)c1ccc(C(=O)Nc2ccnc3[nH]ccc23)cc1` on SEM cells? 114

====

Measured cell viability values are reported for all entries that follow.
Tested on: P12-Ichikawa
test_protocol: cell viability relative to DMSO control; higher = less cytotoxic
experimental_context: HPLM + 10% dialyzed FBS; 48 h; 46.1 µM
Supply the numeric figure in %, leaving out any unit text.

These solved cases illustrate the format of a correct answer.
[[record]]
smiles_string = "COc1ccc(Nc2cc(-c3cnc(N)nc3)nc(N3CCOCC3)n2)cn1"
metric = "cell viability"
unit_info = "%"
observed_result = 71.9

[[record]]
smiles_string = "COC[C@H]1OC(=O)C2=COC3=C2[C@@]1(C)\\C4=C(\\[C@@H]5CC[C@H](O)[C@@]5(C)C[C@H]4OC(C)=O)C3=O"
metric = "cell viability"
unit_info = "%"
observed_result = 68.2

[[record]]
smiles_string = "C#Cc1cccc(Nc2ncnc3cc(OC)c(OCCCCCCC(=O)NO)cc23)c1"
metric = "cell viability"
unit_info = "%"
observed_result = 2.39

[[record]]
smiles_string = "CC(C)(C)NC(=O)[C@H]1CC[C@H]2[C@@H]3CC[C@H]4NC(=O)\\C=C/[C@]4(C)[C@H]3CC[C@]12C"
metric = "cell viability"
unit_info = "%"
observed_result = 12.7


What measured cell viability is associated with `CC(C)c1ccccc1Cc1cc(C(=O)Nc2ccc([S+](=O)([O-])c3ccccc3C(C)(C)C)cc2)c(O)c(O)c1O` on P12-Ichikawa? 91.5

What measured cell viability is associated with `O=[N+]([O-])c1cnc(Sc2nnc(O)n2-c2ccc3c(c2)OCCO3)s1` on P12-Ichikawa? 2.64

What measured cell viability is associated with `Cc1ccc(-c2ncn(-c3ccc(Nc4nccc(-c5cccc(N6CCOCC6)c5)n4)cc3)n2)cn1` on P12-Ichikawa? 4.16

What measured cell viability is associated with `CN(C)CCN(Cc1ccc(Cl)cc1)c1ccccn1.Cl` on P12-Ichikawa? 101

====

Tested on: P12-Ichikawa
test_protocol: cell viability relative to DMSO control; higher = less cytotoxic
experimental_context: RPMI 5 mM glucose + 10% FBS; 48 h; 15.4 µM
metric: cell viability (%)
Supply the numeric figure in %, leaving out any unit text.

[[record]]
molecule = "CC(C)NCC(O)c1ccc(NS(C)(=O)=O)cc1 (centres undefined)"
observed_result = 98.7

[[record]]
molecule = "CN[C@@H]1C[C@H]2O[C@@](C)([C@@H]1OC)n1c3ccccc3c3c4c(c5c6ccccc6n2c5c31)C(=O)N[C@H]4O"
observed_result = 14.8

[[record]]
molecule = "NCC(=O)Nc1ccc(-n2nc(C(F)(F)F)cc2-c2ccc3c(ccc4ccccc43)c2)cc1"
observed_result = 79.2


In the following, a different molecule is considered.
// lookup cell viability for `O=C(CCc1ccc(O)cc1)c1c(O)cc(O)cc1O[C@@H]1O[C@H](CO)[C@@H](O)[C@H](O)[C@H]1O` 81.6

====

Tested on: SEM cells
test_protocol: cell viability relative to DMSO control; higher = less cytotoxic
experimental_context: HPLM + 10% dialyzed FBS; 48 h; 1.71 µM
Measured cell viability values are reported for all entries that follow.
Supply the numeric figure in %, leaving out any unit text.

[[record]]
compound = "CCN1C[C@]2(OC(=O)c3ccccc3NC(C)=O)CC[C@H](OC)[C@@]34[C@@H]2C[C@@H]([C@@H]13)[C@@]1(O)C[C@H](OC)[C@H]2C[C@@H]4[C@]1(O)[C@H]2OC"
metric = "cell viability"
unit_info = "%"
observed_result = 106


// lookup cell viability for `CC[C@@]1(O)C[C@H](O[C@H]2C[C@H](N(C)C)[C@H](O[C@H]3C[C@H](O)[C@H](O[C@H]4CCC(=O)[C@H](C)O4)[C@H](C)O3)[C@H](C)O2)c2c(cc3c(c2O)C(=O)c2c(O)cccc2C3=O)[C@H]1C(=O)OC` 11.4

// lookup cell viability for `C=CCn1c(=O)c2cnc(Nc3ccc(N4CCN(C)CC4)cc3)nc2n1-c1cccc(C(C)(C)O)n1` 28.3

// lookup cell viability for `C#C[C@]1(O)CC[C@H]2[C@@H]3CCc4cc(OC)ccc4[C@H]3CC[C@@]21C` 107

====

Test system: SEM cells
test_protocol: cell viability relative to DMSO control; higher = less cytotoxic
experimental_context: RPMI 5 mM glucose + 10% dialyzed FBS; 48 h; 0.0211 µM
Measured cell viability values are reported for all entries that follow.
Supply the numeric figure in %, leaving out any unit text.

These solved cases illustrate the format of a correct answer.
[[record]]
compound = "COc1cc(OC)c(NC(=O)Nc2cc(C)on2)cc1Cl"
unit_info = "%"
observed_result = 94.5

[[record]]
compound = "C#C[C@]1(O)CC[C@H]2[C@@H]3CCc4cc(OC)ccc4[C@H]3CC[C@@]21C"
unit_info = "%"
observed_result = 125

[[record]]
compound = "COC1=CC=C(C=C1)C2CC(=N/N2C3=CC=C(C=C3)[S+](N)([O-])=O)\\C4=CC=CC=C4 (stereo not drawn)"
unit_info = "%"
observed_result = 95.4

[[record]]
compound = "N[C@@H](CC(=O)N1CCn2c(nnc2C(F)(F)F)C1)Cc1cc(F)c(F)cc1F"
unit_info = "%"
observed_result = 97.4

[[record]]
compound = "O=C(CCCCCCC(=O)Nc1ccccc1)NO"
unit_info = "%"
observed_result = 109


// lookup cell viability for `COc1cccc2c1C(=O)c1c(O)c3c(c(O)c1C2=O)C[C@@](O)(C(C)=O)C[C@@H]3O[C@H]1C[C@H](N)[C@H](O)[C@H](C)O1` 84.3

// lookup cell viability for `CCOC1=CC(=CC=C1C/2=N/[C@@](C)(C3=CC=C(Cl)C=C3)[C@](C)(N2C(=O)N4CCN(CC4)CC(=O)N5CCOCC5)C6=CC=C(Cl)C=C6)C(C)(C)C` 111

// lookup cell viability for `CC(=O)[C@H]1CC[C@H]2[C@@H]3CCC4=CC(=O)CC[C@]4(C)[C@H]3CC[C@]12C` 109

====

System: SEM cells
test_protocol: cell viability relative to DMSO control; higher = less cytotoxic
experimental_context: HPLM + 10% dialyzed FBS; 48 h; 0.19 µM
metric: cell viability (%)
Supply the numeric figure in %, leaving out any unit text.

These solved cases illustrate the format of a correct answer.
[[record]]
compound = "CN(C)c1ccc(Nc2nc(N)n(C(=O)c3c(F)cccc3F)n2)cc1"
unit_info = "%"
observed_result = 117

[[record]]
compound = "O=C(NNC(=O)c1ccc(CN[S+](=O)([O-])c2ccc(F)c(Cl)c2)cc1)c1ccccc1"
unit_info = "%"
observed_result = 109

[[record]]
compound = "C[N+](C)([O-])CCNc1ccc(NCC[N+](C)(C)[O-])c2c1C(=O)c1c(O)ccc(O)c1C2=O"
unit_info = "%"
observed_result = 77.1

[[record]]
compound = "Nc1nc(OCc2ccccc2)c2nc[nH]c2n1"
unit_info = "%"
observed_result = 124


// lookup cell viability for `COc1cccc2c1C(=O)c1c(O)c3c(c(O)c1C2=O)C[C@@](O)(C(C)=O)C[C@@H]3O[C@H]1C[C@H](N)[C@H](O)[C@H](C)O1` 25.3

// lookup cell viability for `O=C(CCCCCCC(=O)Nc1ccccc1)NO` 116

// lookup cell viability for `CCCCN(CCCC)C(=O)CN1C[C@H](c2ccc3c(c2)OCO3)[C@@H](C(=O)O)[C@@H]1c1ccc(OC)cc1` 105

// lookup cell viability for `CC1(C)CC(O)CC(C)(C)N1[O]` 89.1

// lookup cell viability for `C#Cc1cccc(Nc2ncnc3cc(OC)c(OCCCCCCC(=O)NO)cc23)c1` 73.4
